Recorded values, source patent US20160242416A1.

# Tested on: Zymoseptoria tritici
# assay-info: Test E: wheat leaf blotch, preventive spray on wheat seedlings
# details: 10 ppm; wheat leaf blotch; 100 = 100% disease control, 0 = no control

- compound: "OC(Cn1cncn1)(C1=NOC(c2ccc(Oc3ccccc3)cc2)C1)c1ccc(Cl)cc1 (single isomer, unassigned) [Compound 142]"
  target: "Zymoseptoria tritici"
  Test E rating (% disease control) / %: 91
- compound: "CCCCC(O)(Cn1cncn1)C1=NOC(c2ccc(Cl)cc2)C1 (single isomer, unassigned) [Compound 155]"
  target: "Zymoseptoria tritici"
  Test E rating (% disease control) / %: 2
- compound: "CC(C)(C)C(O)(Cn1cncn1)C1=NOC(COc2ccc(F)cc2F)C1 (single isomer, unassigned) [Compound 21]"
  target: "Zymoseptoria tritici"
  Test E rating (% disease control) / %: 0
- compound: "CC(C)C(O)(Cn1cncn1)C1=NOC(c2ccc(Cl)cc2)C1 (single isomer, unassigned) [Compound 4]"
  target: "Zymoseptoria tritici"
  Test E rating (% disease control) / %: 0
- compound: "CC(C)(C)CC(O)(Cn1cncn1)C1=NOC(Cc2ccc(Cl)cc2)C1 (single isomer, unassigned) [Compound 206]"
  target: "Zymoseptoria tritici"
  Test E rating (% disease control) / %: 13
- compound: "OC(Cn1cncn1)(C1=NOC(c2ccc(Cl)cc2)C1)c1ccc(Br)cc1 (single isomer, unassigned) [Compound 180]"
  target: "Zymoseptoria tritici"
  Test E rating (% disease control) / %: 1
- compound: "OC(Cn1cncn1)(C1=NOC(c2ccc(Cl)cc2)C1)c1ccc(Cl)cc1Cl (single isomer, unassigned) [Compound 141]"
  target: "Zymoseptoria tritici"
  Test E rating (% disease control) / %: 1

----------
# System: Zymoseptoria tritici
# assay-info: Test E: wheat leaf blotch, preventive spray on wheat seedlings
# details: 10 ppm; wheat leaf blotch; 100 = 100% disease control, 0 = no control
Below, each entry is listed with its recorded Test E rating (% disease control).

- compound: "C=CCC(O)(Cn1cncn1)C1=NOC(c2ccc(Cl)cc2)C1 (single isomer, unassigned) [Compound 85]"
  Test E rating (% disease control) / %: 0
- compound: "OC(Cn1cncn1)(C1=NOC(c2ccc(Oc3ccccc3)cc2)C1)c1ccc(Cl)cc1 (single isomer, unassigned) [Compound 143]"
  Test E rating (% disease control) / %: 1
- compound: "CC(C)(C)C(O)(Cn1cncn1)C1=NOC(COc2ccc(Br)cc2)C1 (single isomer, unassigned) [Compound 183]"
  Test E rating (% disease control) / %: 35
- compound: "CC(C)(C)C(O)(Cn1cncn1)C1=NOC(COc2ccc(OCc3ccccc3)cc2)C1 (single isomer, unassigned) [Compound 71]"
  Test E rating (% disease control) / %: 1
- compound: "CC(C)(C)C(O)(Cn1cncn1)C1=NOC(Cn2cc(Br)cn2)C1 (single isomer, unassigned) [Compound 42]"
  Test E rating (% disease control) / %: 0
- compound: "OC(Cn1cncn1)(C1=NOC(Cn2ccc(-c3ccc(Cl)cc3)n2)C1)c1ccc(Cl)cc1 (single isomer, unassigned) [Compound 66]"
  Test E rating (% disease control) / %: 1
- compound: "CC(C)(C)C(O)(Cn1cncn1)C1=NOC(COC2CCCCC2)C1 (single isomer, unassigned) [Compound 91]"
  Test E rating (% disease control) / %: 2
- compound: "CC(C)(C)C(O)(Cn1cncn1)C1=NOC(Cc2ccc(Cl)c(Cl)c2)C1 (single isomer, unassigned) [Compound 22]"
  Test E rating (% disease control) / %: 29
- compound: "CS(=O)(=O)c1ccc(C2CC(C(O)(Cn3cncn3)c3ccc(Cl)cc3)=NO2)cc1 (single isomer, unassigned) [Compound 113]"
  Test E rating (% disease control) / %: 9
- compound: "OC(Cn1cncn1)(C1=NOC(Cn2cc(Br)cn2)C1)c1ccc(Cl)cc1 (single isomer, unassigned) [Compound 37]"
  Test E rating (% disease control) / %: 0
- compound: "CC(C)(C)C(O)(Cn1cncn1)C1=NOC(COc2ccc(I)cc2)C1 (single isomer, unassigned) [Compound 184]"
  Test E rating (% disease control) / %: 94
- compound: "OC(Cn1cncn1)(C1=NOC(c2ccc(Cl)cc2)C1)c1ccccc1F (single isomer, unassigned) [Compound 135]"
  Test E rating (% disease control) / %: 1
- compound: "CC(C)(C)C(O)(Cn1cncn1)C1=NOC(COc2ccc(OC(F)(F)F)cc2)C1 (single isomer, unassigned) [Compound 25]"
  Test E rating (% disease control) / %: 0
- compound: "OC(Cn1cncn1)(C1=NOC(c2ccc(Cl)cc2)C1)c1ccc(C(F)(F)F)cc1 (single isomer, unassigned) [Compound 105]"
  Test E rating (% disease control) / %: 8
- compound: "CC(C)(C)CC1CC(C(O)(Cn2cncn2)C(C)(C)C)=NO1 (single isomer, unassigned) [Compound 77]"
  Test E rating (% disease control) / %: 0
- compound: "OC(Cn1cncn1)(C1=NOC(c2ccc(Cl)cc2)C1)c1ccc(Cl)cc1Cl (single isomer, unassigned) [Compound 140]"
  Test E rating (% disease control) / %: 67
- compound: "CC(C)(C)C(O)(Cn1cncn1)C1=NOC(CO[Si](C)(C)C(C)(C)C)C1 (single isomer, unassigned) [Compound 9]"
  Test E rating (% disease control) / %: 0
- compound: "OC(Cn1cncn1)(C1=NOC(c2ccc(C(F)(F)F)cc2)C1)c1ccc(Cl)cc1 (single isomer, unassigned) [Compound 146]"
  Test E rating (% disease control) / %: 99
- compound: "OC(Cn1cncn1)(C1=NOC(c2ccc(F)cc2)C1)c1ccc(Cl)cc1 (single isomer, unassigned) [Compound 158]"
  Test E rating (% disease control) / %: 3
- compound: "OC(Cn1cncn1)(C1=NOC(COc2ncc(Cl)cn2)C1)c1ccc(Cl)cc1 (single isomer, unassigned) [Compound 166]"
  Test E rating (% disease control) / %: 0
- compound: "OC(Cn1cncn1)(C1=NOC(COc2ccc(F)cc2)C1)c1ccc(Cl)cc1 (single isomer, unassigned) [Compound 163]"
  Test E rating (% disease control) / %: 0
- compound: "CC(C)(C)C(O)(Cn1cncn1)C1=NOC(c2ccc(-n3cc(Br)cn3)cc2)C1 (single isomer, unassigned) [Compound 8]"
  Test E rating (% disease control) / %: 0
- compound: "OC(Cn1cncn1)(C1=NOC(COc2ccc3c(c2)OCO3)C1)c1ccc(Cl)cc1 (single isomer, unassigned) [Compound 44]"
  Test E rating (% disease control) / %: 2
- compound: "OC(Cn1cncn1)(C1=NOC(COCc2ccccc2)C1)c1ccc(Cl)cc1 (single isomer, unassigned) [Compound 58]"
  Test E rating (% disease control) / %: 0
- compound: "CC(C)(C)C(O)(Cn1cncn1)C1=NOC(Cc2ccc(Br)cc2)C1 (single isomer, unassigned) [Compound 53]"
  Test E rating (% disease control) / %: 20
- compound: "OC(Cn1cncn1)(C1=NOC(c2ccc(Cl)cc2)C1)C1CCCCC1 (single isomer, unassigned) [Compound 196]"
  Test E rating (% disease control) / %: 12

----------
# Test system: Zymoseptoria tritici
# assay-info: Test E: wheat leaf blotch, preventive spray on wheat seedlings
# details: 10 ppm test solution; 100 = 100% disease control, 0 = no control relative to controls

- compound: "CC(C)(C)C(O)(Cn1cncn1)C1=NOC(CCOc2ccc(F)cc2)C1 (single isomer, unassigned) [Compound 269]"
  Test E disease control rating (%): 73
- compound: "CC(C)CC(O)(Cn1cncn1)C1=NOC(COc2ccc(Cl)cc2)C1 (single isomer, unassigned) [Compound 267]"
  Test E disease control rating (%): 3
- compound: "CC(C)(C)C(O)(Cn1cncn1)C1=NOC(COc2cccc(Br)c2)C1 (single isomer, unassigned) [Compound 233]"
  Test E disease control rating (%): 0
- compound: "CC(C)(C)CC(O)(Cn1cncn1)C1=NOC(Cc2ccc(C(F)(F)F)cc2)C1 (single isomer, unassigned) [Compound 227]"
  Test E disease control rating (%): 29

----------
# System: Puccinia recondita f sp. tritici
# assay-info: Test F: wheat leaf rust, preventive spray on wheat seedlings
# details: 10 ppm test solution; 100 = 100% disease control, 0 = no control relative to controls

- compound: "CC1(COc2ccc(Cl)cc2)CC(C(O)(Cn2cncn2)C(C)(C)C)=NO1 (single isomer, unassigned) [Compound 217]"
  target: "Puccinia recondita f sp. tritici"
  Test F disease control rating: "100%"
- compound: "CC(C)CC(O)(Cn1cncn1)C1=NOC(COc2ccc(Cl)cc2)C1 (single isomer, unassigned) [Compound 268]"
  target: "Puccinia recondita f sp. tritici"
  Test F disease control rating: "100%"
- compound: "OC(COc1ccc(Cl)cc1)(Cn1cncn1)C1=NOC(COc2ccc(Cl)cc2)C1 (stereo not shown) [Compound 271]"
  target: "Puccinia recondita f sp. tritici"
  Test F disease control rating: "100%"
- compound: "CCC(C)(C)C(O)(Cn1cncn1)C1=NOC(COc2ccc(C(F)(F)F)cc2)C1 (single isomer, unassigned) [Compound 261]"
  target: "Puccinia recondita f sp. tritici"
  Test F disease control rating: "100%"
- compound: "CC(C)(C)C(O)(Cn1cncn1)C1=NOC(COc2cccc(Br)c2)C1 (single isomer, unassigned) [Compound 233]"
  target: "Puccinia recondita f sp. tritici"
  Test F disease control rating: "100%"
- compound: "CCC(C)(C)C(O)(Cn1cncn1)C1=NOC(COc2ccc(F)cc2)C1 (single isomer, unassigned) [Compound 250]"
  target: "Puccinia recondita f sp. tritici"
  Test F disease control rating: "99%"
- compound: "COc1ccc(OCC2CC(C(O)(Cn3cncn3)C(C)(C)C)=NO2)cc1 (single isomer, unassigned) [Compound 259]"
  target: "Puccinia recondita f sp. tritici"
  Test F disease control rating: "92%"
